test system: Vasopressin V1; assay: Vasopressin V1 Antagonist Activity in Conscious Rats (vasopressin vasopressor response); type: in vivo, rat; set-up: unit not given here; settings: 10 mg/kg i.v., VAS 0.01 i.u./kg, 240 min, SHR
For each entry below, report its Average Change value.
// no unit string in output, number only

Which measured Average Change value corresponds to Cc1ccccc1CC(=O)Nc1ccc(C(=O)N2Cc3cccn3Cc3ccccc32)cc1 ?
13

# query: Average Change of entry Cc1ccccc1C(=O)Nc1ccc(C(=O)N2Cc3ccc(Cl)n3Cc3ccccc32)cc1
12.5

Need Average Change, item O=C(Nc1ccc(C(=O)N2Cc3cccn3Cc3ccccc32)cc1)c1ccccc1C(F)(F)F
20

For the compound shown here, CCOc1ccccc1C(=O)Nc1ccc(C(=O)N2Cc3cccn3Cc3ccccc32)cc1 , give the reported Average Change.
26

----------
test system: Vasopressin V1; experiment: Vasopressin V1 Antagonist Activity in Conscious Rats (vasopressin vasopressor response); format: in vivo, rat; conditions: 10 mg/kg i.v.
Task for the reader: assign each of the following compounds its reported Max. % Inhibition.
Output spec: scalar in %, unitless text.

Name the reported Max. % Inhibition value associated with the compound O=C(Nc1ccc(C(=O)N2Cc3cccn3Cc3ccccc32)cc1)c1sccc1Cl
78

Looking for the measured Max. % Inhibition of NC(=O)CNC(C(=O)Nc1ccc(C(=O)N2Cc3cccn3Cc3ccccc32)cc1)c1ccccc1 (centres unmarked) , can you help?
56

What Max. % Inhibition value was documented for this compound, CC(=O)OC(C(=O)Nc1ccc(C(=O)N2Cc3cccn3Cc3ccccc32)cc1)c1ccccc1 (centres unmarked) ?
75

Entry Cc1cccc(C(=O)Nc2ccc(C(=O)N3Cc4cccn4Cc4ccccc43)cc2)c1C has what Max. % Inhibition?
65

Bench note: what Max. % Inhibition did COc1cc(C(=O)N2Cc3cccn3Cc3ccccc32)ccc1NC(=O)c1ccc(Cl)cc1Cl show?
76

# query: Max. % Inhibition of entry O=C(Nc1ccc(C(=O)N2Cc3cccn3Cc3ccccc32)cc1)c1cccc(Cl)c1Cl
68

Suppose we examine the compound Cc1cc(C(=O)N2Cc3cccn3Cc3ccccc32)ccc1NC(=O)c1ccc(Cl)cc1Cl ; what Max. % Inhibition value has been reported?
76

Tell me the measured Max. % Inhibition of Cc1ccccc1C(=O)Nc1ccc(C(=O)N2Cc3cccn3Cc3sccc32)cc1 , please.
56

----------
test system: Vasopressin V1; experiment: Vasopressin V1 Antagonist Activity in Conscious Rats (vasopressin vasopressor response); assay type: in vivo, rat; set-up: unit not given here; conditions: 20 mg/kg i.v., VAS 0.01 i.u./kg, 300 min, SHR
test.readout: Average Change
Form rule: numeric answer, no unit written next to it.

// returns reported Average Change for input Cc1c(CC(=O)Nc2ccc(C(=O)N3Cc4cccn4Cc4ccccc43)cc2)sc2ccccc12
30

Reported Average Change for O=C(Nc1ccc(C(=O)N2Cc3cccn3Cc3ccccc32)cc1)c1sc2ccccc2c1Cl : what is it?
32

Find the recorded Average Change belonging to Cc1cc(C(=O)N2Cc3cccn3Cc3ccccc32)ccc1N and report it.
24.5

Endpoint output: Average Change of O=C(Nc1ccc(C(=O)N2Cc3cccn3Cc3ccccc32)cc1)c1ccc2[nH]ccc2c1 . Value?
26

----------
Give measured pIC50 for each item. Keep answers brief.
target: Rat Kidney Medullary V2 Receptors (Rattus norvegicus, UniProt Q00788); construct: Medullary tissues from rat kidneys are dissected out; from tissue; host or cells: rat kidney medulla membranes; assay: Binding Assay to Rat Kidney Medullary V2 Receptors; conditions: rat kidney medulla membranes; read-out: V2 IC50
Sequence (Q00788 whole entry): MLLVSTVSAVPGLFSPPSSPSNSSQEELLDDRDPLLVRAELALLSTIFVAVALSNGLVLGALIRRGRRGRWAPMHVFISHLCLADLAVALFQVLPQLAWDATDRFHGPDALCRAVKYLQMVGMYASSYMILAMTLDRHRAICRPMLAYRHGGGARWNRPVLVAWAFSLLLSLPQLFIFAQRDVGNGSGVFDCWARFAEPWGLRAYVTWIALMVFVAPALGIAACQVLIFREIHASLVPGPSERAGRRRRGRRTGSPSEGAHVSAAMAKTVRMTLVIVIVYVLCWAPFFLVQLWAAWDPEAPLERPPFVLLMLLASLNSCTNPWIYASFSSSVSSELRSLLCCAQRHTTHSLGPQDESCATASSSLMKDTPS
Reminder that pIC50 means the negative base-10 logarithm of the concentration expressed in mol/L.

Which pIC50 is reported for this molecule? Cc1ccccc1C(=O)Nc1ccc(C(=O)N2Cc3ccc(CN4CCCCC4)n3Cc3ccccc32)cc1
7.24

Would you kindly share the measured pIC50 for O=C(Nc1ccc(C(=O)N2Cc3cccn3Cc3ccccc32)cc1)c1cccc(Cl)c1Cl ?
7.54

Which pIC50 value belongs to Cc1c(F)cccc1C(=O)Nc1ccc(C(=O)N2Cc3cccn3Cc3ccccc32)c(Cl)c1 ?
8.47

pIC50 for Cc1ccccc1C(=O)Nc1ccc(C(=O)N2Cc3cccn3Cc3ccccc32)c(Cl)c1 ?
8.35

For the molecule shown here, O=C(Nc1ccc(C(=O)N2Cc3cccn3Cc3ccccc32)c(Cl)c1)c1ccc(Cl)cc1Cl , give the reported pIC50.
8.08

pIC50 lookup needed for Cc1cccc(C(=O)Nc2ccc(C(=O)N3Cc4cccn4-c4ccccc43)cc2)c1C , thanks.
7.06

Name the recorded pIC50 for Cc1ccccc1C(=O)Nc1ccc(C(=O)N2Cc3ccc(Cl)n3Cc3ccccc32)cc1 .
7.77

Reported pIC50 for Cc1ccccc1NC(=O)c1ccc(C(=O)N2Cc3cccn3Cc3ccccc32)cc1 : what is it?
7.60

----------
Please go through the items and note down their % Inhibition.
system: Vasopressin V1; assay: Vasopressin V1 Antagonist Activity in Conscious Rats (vasopressin vasopressor response); format: in vivo, rat; conditions: 10 mg/kg i.v., VAS 0.02 i.u./kg, 60 min, SHR
Form entry: enter the amount, then its unit.

Requested read-out: % Inhibition. Entry: O=C(Nc1ccc(C(=O)N2Cc3cccn3Cc3ccccc32)cc1)c1ccccc1Cl
86%

What value of % Inhibition has been recorded for this entry: CSc1ccccc1C(=O)Nc1ccc(C(=O)N2Cc3cccn3Cc3ccccc32)cc1
73%

// returns reported % Inhibition for input Cc1ccccc1C(=O)Nc1ccc(C(=O)N2Cc3cccn3-c3ccccc32)cc1
34%

Can you look up the measured % Inhibition of COc1cc(Cl)ccc1C(=O)Nc1ccc(C(=O)N2Cc3cccn3Cc3ccccc32)cc1 for me?
84%

// % Inhibition lookup, key: COc1ccccc1C(=O)Nc1ccc(C(=O)N2Cc3cccn3Cc3ccccc32)cc1
74%

Form field: reported % Inhibition of Cc1ccsc1C(=O)Nc1ccc(C(=O)N2Cc3cccn3Cc3ccccc32)cc1
78%

If you can, please state the reported % Inhibition value of CCOc1ccccc1C(=O)Nc1ccc(C(=O)N2Cc3cccn3Cc3ccccc32)cc1 .
45%

----------
Please go through the items and note down their Time (of max. % inhibition).
tested on: Vasopressin V1; test: Vasopressin V1 Antagonist Activity in Conscious Rats (vasopressin vasopressor response); format: in vivo, rat; settings: 10 mg/kg i.v.
Number only, in min; omit the unit.

// map NC(=O)CNC(C(=O)Nc1ccc(C(=O)N2Cc3cccn3Cc3ccccc32)cc1)c1ccccc1 (centres unmarked) to recorded Time (of max. % inhibition) (system: Vasopressin V1)
30

Lab note: need Time (of max. % inhibition) with Vasopressin V1 for entry COc1cc(C(=O)N2Cc3cccn3Cc3ccccc32)ccc1NC(=O)c1ccccc1C , please look it up.
180

Please provide the recorded Time (of max. % inhibition) for Cc1ccccc1C(=O)Nc1ccc(C(=O)N2Cc3cccn3Cc3ccccc32)c(Cl)c1 , tested on Vasopressin V1.
180

What measured Time (of max. % inhibition) is associated with O=C(Cc1ccccc1Cl)Nc1ccc(C(=O)N2Cc3cccn3Cc3ccccc32)cc1 on Vasopressin V1?
60

Please tell me: Time (of max. % inhibition) of O=C(Nc1ccc(C(=O)N2Cc3cccn3Cc3ccccc32)cc1)C(O)c1ccccc1 (racemic) , system Vasopressin V1?
90

// lookup Time (of max. % inhibition) | system=Vasopressin V1 | key= O=C(Nc1ccc(C(=O)N2Cc3cccn3Cc3sccc32)cc1)c1ccc(Cl)cc1Cl
300

# returns recorded Time (of max. % inhibition) (system: Vasopressin V1) for O=C(Nc1ccc(C(=O)N2Cc3ccc(Cn4ccnc4)n3Cc3ccccc32)cc1)c1ccc(Cl)cc1Cl
170

GET /values?readout=Time (of max. % inhibition)&system=Vasopressin V1&item= Cc1ccc(F)cc1C(=O)Nc1ccc(C(=O)N2Cc3cccn3Cc3ccccc32)cc1
90

----------
tested on: Vasopressin V1; assay: Vasopressin V1 Antagonist Activity in Conscious Rats (vasopressin vasopressor response); format: in vivo, rat; conditions: 20 mg/kg i.v., VAS 0.01 i.u./kg, 90 min, SHR
test.readout: % Inhibition (%)
The reply should contain only the number, in %.

Item under review: Cc1c(CC(=O)Nc2ccc(C(=O)N3Cc4cccn4Cc4ccccc43)cc2)sc2ccccc12 [Example 87] . Reported % Inhibition?
61

// returns reported % Inhibition for input O=C(Nc1ccc(C(=O)N2Cc3cccn3Cc3ccccc32)cc1)c1sc2ccccc2c1Cl [Example 82]
51

Entry under review: Cc1cc(C(=O)N2Cc3cccn3Cc3ccccc32)ccc1N [Example 95] . Reported % Inhibition?
70

What value of % Inhibition has been reported for the following compound? O=C(Nc1ccc(C(=O)N2Cc3cccn3Cc3ccccc32)cc1)c1ccc2[nH]ccc2c1 [Example 117]
38

----------
system: Vasopressin V1; assay: Vasopressin V1 Antagonist Activity in Conscious Rats (vasopressin vasopressor response); assay type: in vivo, rat; settings: 10 mg/kg i.v., VAS 0.02 i.u./kg, 300 min, SHR
test.readout: % Inhibition
Record the result as number plus unit.

// lookup % Inhibition for Cc1ccccc1C(=O)N(C)c1ccc(C(=O)N2Cc3cccn3Cc3ccccc32)cc1 [Example 384]
54%

May I ask what % Inhibition has been recorded for CCOc1ccccc1C(=O)Nc1ccc(C(=O)N2Cc3cccn3Cc3ccccc32)cc1 [Example 84] ?
30%

// returns reported % Inhibition for input CSc1ccccc1C(=O)Nc1ccc(C(=O)N2Cc3cccn3Cc3ccccc32)cc1 [Example 85]
49%

# lookup: % Inhibition of Cc1ccsc1C(=O)Nc1ccc(C(=O)N2Cc3cccn3Cc3ccccc32)cc1 [Example 5]
18%

What does the data say about its % Inhibition? Entry: COc1cc(Cl)ccc1C(=O)Nc1ccc(C(=O)N2Cc3cccn3Cc3ccccc32)cc1 [Example 89]
48%

Look up % Inhibition for this compound: Cc1cc(C(=O)N2Cc3cccn3Cc3ccccc32)ccc1NC(=O)c1ccc(Cl)cc1Cl [Example 99]
38%

Given Cc1ccccc1CC(=O)Nc1ccc(C(=O)N2Cc3cccn3Cc3ccccc32)cc1 [Example 93] , state its recorded % Inhibition.
74%

Dear colleague, I am looking for the recorded % Inhibition of the following compound: Cc1ccccc1NC(=O)Nc1ccc(C(=O)N2Cc3cccn3Cc3ccccc32)cc1 [Example 116]
14%

Which % Inhibition value is on record for O=C(Nc1ccc(C(=O)N2Cc3cccn3Cc3ccccc32)cc1)c1ccccc1C(F)(F)F [Example 91] ?
48%

Which % Inhibition value belongs to O=C(Nc1ccc(C(=O)N2Cc3cccn3Cc3ccccc32)cc1)c1ccccc1F [Example 8] ?
46%

Which % Inhibition reading was recorded for the compound Cc1cc(C(=O)N2Cc3cccn3Cc3ccccc32)ccc1N [Example 95] ?
27%

What does the record list as % Inhibition for Cc1ccccc1C(=O)Nc1ccc(C(=O)N2Cc3cccn3-c3ccccc32)cc1 [Example 14] ?
16%

Item O=C(Nc1ccc(C(=O)N2Cc3cccn3Cc3ccccc32)cc1)c1ccc(Cl)cc1Cl [Example 6] has what recorded % Inhibition?
14%

Would you mind telling me what % Inhibition value was observed for O=C(Cc1ccccc1F)Nc1ccc(C(=O)N2Cc3cccn3Cc3ccccc32)cc1 [Example 357] ?
68%

Entry under review: O=C(Nc1ccc(C(=O)N2Cc3cccn3Cc3ccccc32)cc1)c1cccc(F)c1F [Example 1] . Reported % Inhibition?
25%

Param item = O=C(Nc1ccc(C(=O)N2Cc3cccn3Cc3ccccc32)cc1)C1CCCCC1 [Example 358] ; retrieve measured % Inhibition.
59%

Could you tell me which % Inhibition is on file for O=C(Nc1ccc(C(=O)N2Cc3cccn3Cc3ccccc32)cc1)c1ccccc1Cl [Example 7] ?
59%

Would you kindly share the measured % Inhibition for COc1ccccc1C(=O)Nc1ccc(C(=O)N2Cc3cccn3Cc3ccccc32)cc1 [Example 2] ?
37%

Quick one: % Inhibition for Cc1ccccc1C(=O)Nc1ccc(C(=O)N2Cc3ccc(Cl)n3Cc3ccccc32)cc1 [Example 41] ?
47%
